- Test system: ICK
- assay setup: concentration: 1 μM, replicates: in singlicate; n = 1;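 also: KINOMEscan kinase panel screen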
Field 'label' (enum: 1 (yes) / 0 (no)). Set to 1 (yes) when %Inh is strictly under 10%; else 0 (no).

Below are worked cases with known answers.
CC(C)c1nc(-c2cccc(NS(=O)(=O)c3c(F)cccc3F)c2)c(-c2ccnc(Nc3ccc(N4CCOCC4)nc3)n2)s1.Cl    0 (no)
Cc1cccc(Nc2nc(N[C@H]3CCCC[C@H]3N)ncc2C(N)=O)c1.Cl    0 (no)
COc1cc(Nc2nccc(N3CCC(NS(=O)(=O)c4ccc(NC(C)=O)cc4)CC3)n2)cc(OC)c1OC    1 (yes)
Fc1cc(Cl)ccc1Nc1ccnc2cc(-c3ccc(CN4CCOCC4)o3)ccc12    1 (yes)
CN(C)CCNS(=O)(=O)c1ccc(-c2ccnc3[nH]ccc23)cc1    1 (yes)
Nc1cccc(-c2ccc3c(N)n[nH]c3c2)c1    1 (yes)
Cc1cc(-c2ccnc(Nc3cccc(C#N)c3)n2)cc(C)c1O    0 (no)
Cc1ccc(NC(=O)c2ccc(Cl)c(Cl)c2)cc1-c1ccc(C(=O)Nc2ccncc2)cc1    1 (yes)
Cc1cccc(Nc2nc(NCCN)ncc2C(N)=O)c1    0 (no)

Consider now this further compound.
**Q:** In plain terms, does Nc1ncc(-c2ccc3nccc(-c4ccncc4)c3c2)cc1S(=O)(=O)N1CCCCC1 come in under 10% for %Inh?
**A:** 0 (no)

* * *

- Tested on: CAMKK1
- assay setup: concentration: 1 μM, replicates: in singlicate; n = 1
Recorded %Inh determines the label; the label ranges are low (below 7%), medium (7% to below 20%), high (20% or more)

Below are worked cases with known answers.
Cn1cc(-c2ccc3c(c2)CCN3C(=O)Cc2cc(F)cc(C(F)(F)F)c2)c2c(N)ncnc21 [GSK2635225]    low
Cc1ccc(O)cc1Nc1ccnc2cc(-c3ccc(CN4CCCCC4)o3)ccc12 [GW557777]    medium
CN(C)c1ncnc2nc[nH]c12 [SKF-31736]    medium
COc1cccc(-c2nc(-c3ccccc3)[nH]c2-c2ccncc2)c1 [SB-610250]    low
Nc1ncnc2scc(-c3ccc(NC(=O)Cc4cc(F)ccc4F)cc3)c12.O=C(O)C(F)(F)F [SB-731254-M]    medium

**Q:** # bin lookup: classify CN1CCN(Cc2ccc(NC(=O)Nc3ccc(N(C)c4ccnc(Nc5ccc(CS(C)(=O)=O)cc5)n4)cc3)cc2)CC1.Cl [GW827654] by its %Inh
**A:** high

**Q:** # bin lookup: classify CN(C)CCOc1ccc(-c2cc(-c3ccc(Cl)c(O)c3)c(-c3ccncc3)[nH]2)cc1.Cl.Cl [SB-684387] by its %Inh
**A:** high

**Q:** # bin lookup: classify Cc1cc(-c2ccnc(Nc3cccc(C#N)c3)n2)cc(C)c1O [GSK1440913] by its %Inh
**A:** high

**Q:** # bin lookup: classify O=C(Nc1c(F)cccc1F)c1cc(C(=O)c2ccccc2F)c[nH]1 [GSK1326180] by its %Inh
**A:** low

**Q:** # bin lookup: classify COc1cc(Nc2nccc(N3CCC(NC(=O)Nc4ccc5c(c4)OCO5)C3)n2)cc(OC)c1OC (stereo not drawn) [GSK1379766] by its %Inh
**A:** high

**Q:** # bin lookup: classify Cc1ccc(O)cc1Nc1ccnc2ccc(C(C)(C)C)cc12 [GW856805] by its %Inh
**A:** low

**Q:** # bin lookup: classify N#CC1(c2cccc(C(=O)Nc3cccc(Oc4ccc5nc(NC(=O)C6CC6)sc5n4)c3)c2)CC1 by its %Inh
**A:** medium

**Q:** # bin lookup: classify Cn1cc(-c2cnc(N)c3c(-c4ccc5c(c4)CCN5C(=O)Cc4ccccc4)csc23)cn1 [GSK2593074] by its %Inh
**A:** medium

**Q:** # bin lookup: classify CC(C)NCC(Cc1ccccc1)NC(=O)c1cc(Br)c(-c2ccnc3[nH]ccc23)s1.Cl.Cl (stereo not drawn) [GSK1383281] by its %Inh
**A:** high

* * *

Below, each entry is listed with its recorded %Inh.
- System: TRKC
- Construct: gene NTRK3
- assay setup: concentration: 1 μM, replicates: in singlicate; n = 1
Give your result in % as a bare value.

CCn1c(-c2nonc2N)nc2c(-c3ccccc3)ncc(OCCCN)c21.O=C(O)C(F)(F)F.O=C(O)C(F)(F)F    26
Cc1ccc(Nc2ccnc(Nc3ccc(C)c(F)c3)n2)cc1O.Cl    35
O=C(Nc1n[nH]c2nc(-c3cccc(O)c3)ccc12)C1CC1    24
COc1cccc(CC(=O)N2CCc3cc(-c4cn(C)c5ncnc(N)c45)ccc32)c1    52
Nc1ncc(-c2ccc3nccc(-c4ccncc4)c3c2)cc1S(=O)(=O)N1CCCCC1    0

**Q:** Which measured %Inh belongs to CNc1nccc(-c2ccc3c(N)n[nH]c3c2)n1 , tested on TRKC?
**A:** 3

**Q:** Which measured %Inh belongs to COC(=O)Nc1nc2ccc(Oc3ccc(NC(=O)Nc4cc(C(F)(F)F)ccc4F)cc3)cc2[nH]1.Cl , tested on TRKC?
**A:** 98.9

**Q:** Which measured %Inh belongs to Cc1cccc(Nc2nc(N[C@H]3CCCC[C@H]3N)ncc2C(N)=O)c1.Cl , tested on TRKC?
**A:** 22

* * *

- Test system: PIK3CA
- assay setup: concentration: 1 μM, replicates: in singlicate; n = 1
measurement type: %Inh (%)
Give your result in % as a bare value.

O=C(O)C(F)(F)F.O=c1[nH]ccc2nc(N[C@@H]3CCNC3)nc(Nc3ccc4c(c3)S(=O)(=O)CC4)c12    9
Cc1ccc(NC(=O)c2ccc(Cl)c(Cl)c2)cc1-c1ccc(C(=O)Nc2ccncc2)cc1    3
Cc1cccc(Nc2nc(NCCN)ncc2C(N)=O)c1    0
Cn1cc(-c2ccc3c(c2)CCN3C(=O)Cc2cc(F)cc(C(F)(F)F)c2)c2c(N)ncnc21    0

**Q:** // %Inh lookup, key: CS(=O)(=O)c1cccc(CNc2nc(Nc3ccc4c(c3)CCC(=O)N4)ncc2C(F)(F)F)c1
**A:** 0

* * *

- System: CSNK1G3
- assay setup: concentration: 1 μM, replicates: in singlicate; n = 1
measurement type: %Inh (%)
Give your result in % as a bare value.

Solved entries (count: 3):
O=C(O)C(F)(F)F.O=c1[nH]ccc2nc(N[C@@H]3CCNC3)nc(Nc3cc(Cl)cc(Cl)c3)c12 [GSK2188764]    95.1
COc1ccc(NC(=O)c2ccoc2)cc1-c1ccc(C(=O)NCC2CC2)cc1 [GW810437]    0
CSc1ccc(NC2=C(c3ccc(Cl)cc3)C(=O)NC2=O)cc1 [SB-317658]    0

**Q:** // %Inh lookup, key: Nc1ncc(-c2ccc3nccc(-c4ccncc4)c3c2)cc1S(=O)(=O)N1CCCCC1 [GSK1693850]
**A:** 33

**Q:** // %Inh lookup, key: O=C(Nc1n[nH]c2nc(-c3ccccc3O)ccc12)C1CC1 [SB-711880]
**A:** 28

**Q:** // %Inh lookup, key: COc1ccc(C2=C(Nc3cccc(O)c3)C(=O)NC2=O)cc1 [SB-390766]
**A:** 19

* * *

- System: EPHB3
- assay setup: concentration: 1 μM, replicates: in singlicate; n = 1
Decide by %Inh: equal to or exceeding 5% means class 1, less means class 0.

O=C(Nc1n[nH]c2nc(-c3cccc(O)c3)ccc12)C1CC1    class 0
COc1cc(Nc2nccc(N3CCC(NS(=O)(=O)c4ccc(NC(C)=O)cc4)CC3)n2)cc(OC)c1OC    class 1

**Q:** Quick check, %Inh >= 5%? COc1cc(Nc2ccnc3cc(-c4ccncc4)ccc23)cc(OC)c1OC.Cl
**A:** class 0

**Q:** Quick check, %Inh >= 5%? O=C(Nc1n[nH]c2nc(-c3ccccc3)ccc12)C1CC1
**A:** class 1

* * *

- Test system: SRPK1
- assay setup: concentration: 1 μM, replicates: in singlicate; n = 1
measurement type: %Inh
// return the numeric value with its unit appended

Solved entries (count: 4):
COc1cccc(NC(=O)NCCNc2ccnc(Nc3ccc(F)cc3)n2)c1    0%
CN(C)CCOc1ccc(-c2cc(-c3ccc(Cl)c(O)c3)c(-c3ccncc3)[nH]2)cc1.Cl.Cl    0%
Cc1ccc(C)c(NC(=O)Nc2ccc(C)c(-c3ccc(C(=O)Nc4ccncc4)cc3)c2)c1    26%
CNc1nccc(-c2ccc3c(N)n[nH]c3c2)n1    68%

**Q:** // %Inh lookup, key: CCNC(=O)/C=C/c1n[nH]c2cc(Sc3ccccc3C(=O)NC)ccc12
**A:** 63%

* * *

- System: LCK
- assay setup: concentration: 1 μM, replicates: in singlicate; n = 1
Below, each entry is listed with its recorded %Inh.
Give your result in % as a bare value.

Solved entries (count: 5):
Cl.N#CCc1ccc(Nc2nccc(Nc3ccc(Oc4ccccc4)cc3)n2)cc1 [GW639905]    90.6
COc1cccc(C2=C(Nc3cccc(O)c3)C(=O)NC2=O)c1 [SB-390771]    11
Cc1nn2c(=O)cc(N3CCO[C@H](C)C3)nc2n1Cc1cccc(Cl)c1Cl [GSK2373693]    13
CN(C)c1ncnc2nc[nH]c12 [SKF-31736]    0
O=C(Nc1n[nH]c2cc(-c3cccs3)ccc12)C1CC1 [SB-731284]    0

**Q:** // %Inh lookup, key: O=C1NC(=O)C(c2ccccc2Cl)=C1Nc1cccc(Cl)c1 [SB-342409]
**A:** 1

**Q:** // %Inh lookup, key: CC(C)NCC(Cc1ccccc1)NC(=O)c1cc(Br)c(-c2ccnc3[nH]ccc23)s1.Cl.Cl (centres unmarked) [GSK1383281]
**A:** 11

**Q:** // %Inh lookup, key: CN(c1ccc2c(c1)nc(NCc1ccccc1)n2C)c1ccnc(Nc2ccc(CS(C)(=O)=O)cc2)n1.Cl [GW811603]
**A:** 59

**Q:** // %Inh lookup, key: CCn1c(-c2nonc2N)nc2c(-c3ccccc3)ncc(OCCCN)c21.O=C(O)C(F)(F)F.O=C(O)C(F)(F)F [GSK260205]
**A:** 29

**Q:** // %Inh lookup, key: CC(C)c1nc(-c2cccc(NS(=O)(=O)c3c(F)cccc3F)c2)c(-c2ccnc(Nc3ccc(N4CCOCC4)nc3)n2)s1.Cl [GSK1723980]
**A:** 99.7

**Q:** // %Inh lookup, key: COC(=O)Nc1nc2ccc(Oc3ccc(CC(=O)Nc4cc(C(F)(F)F)ccc4F)cc3)cc2[nH]1 [GW680903]
**A:** 22
